The measurements presented in this section are drawn from the supplement of paper PMC6555819.

- Test system: FXR:RXRa (NR concentration 270 nM, RXRa partner concentration 90 nM)
- procedure_text: PBM binding z-score (relative to random genomic background probes); higher = stronger binding; sequences stand for … in GC…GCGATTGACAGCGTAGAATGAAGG
For each of the sequences below, state its PBM binding z-score.
Enter the number alone.

Field PBM binding z-score (system: FXR:RXRa (NR concentration 270 nM, RXRa partner concentration 90 nM)) for entry ATCTCTAGGTAAAAGTTCAGTGAGTCCCGAGGAT = 0.932

CTCGAAAGGTCGGTTGAGGTGAGAATACGGATAA on FXR:RXRa (NR concentration 270 nM, RXRa partner concentration 90 nM) gives PBM binding z-score = 3.46

The recorded PBM binding z-score with FXR:RXRa (NR concentration 270 nM, RXRa partner concentration 90 nM) for CCAGACAGCTGAAAGGTAACTCAGTCTGGTACGC was -0.259

The value of PBM binding z-score recorded for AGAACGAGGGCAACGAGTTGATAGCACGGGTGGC when tested on FXR:RXRa (NR concentration 270 nM, RXRa partner concentration 90 nM) reads 0.357

Summary line: CCCATTAGTTGACCATAAGGGCAACCGAAGCTCG , FXR:RXRa (NR concentration 270 nM, RXRa partner concentration 90 nM), reported PBM binding z-score = 1.1
